Target Under Test: Broad substrate specificity ATP-binding cassette transporter ABCG2 (Homo sapiens)
Sequence (Q9UNQ0 whole entry): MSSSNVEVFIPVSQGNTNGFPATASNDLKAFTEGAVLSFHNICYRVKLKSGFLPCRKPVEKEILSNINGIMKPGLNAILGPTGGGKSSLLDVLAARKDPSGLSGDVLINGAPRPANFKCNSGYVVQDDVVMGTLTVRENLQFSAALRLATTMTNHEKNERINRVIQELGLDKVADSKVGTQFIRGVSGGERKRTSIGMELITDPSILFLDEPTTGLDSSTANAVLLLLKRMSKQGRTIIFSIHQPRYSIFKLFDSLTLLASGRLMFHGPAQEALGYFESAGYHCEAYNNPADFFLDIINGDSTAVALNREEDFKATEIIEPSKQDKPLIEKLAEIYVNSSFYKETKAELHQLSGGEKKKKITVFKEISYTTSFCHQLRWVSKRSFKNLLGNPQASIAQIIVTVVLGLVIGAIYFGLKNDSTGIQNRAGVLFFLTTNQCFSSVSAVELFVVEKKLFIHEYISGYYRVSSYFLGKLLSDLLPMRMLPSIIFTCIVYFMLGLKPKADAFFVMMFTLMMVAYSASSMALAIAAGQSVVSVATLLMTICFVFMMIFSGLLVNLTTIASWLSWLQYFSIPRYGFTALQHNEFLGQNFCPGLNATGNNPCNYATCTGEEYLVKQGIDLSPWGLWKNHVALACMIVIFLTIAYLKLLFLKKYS
Measurement Description: Inhibition of ABCG2 (unknown origin) in HEK293 cells assessed as maximal inhibition of mitoxantrone efflux at 1 uM by fluorescence based flow cytometry relative to control
Assay type: cell-based
Details: hek293, 1 µM
Reported values of Imax for individual entries

| Structure String | Target Under Test | Imax / % |
| --- | --- | --- |
| COC(=O)[C@@H](NC(=O)c1cc(=O)c2c(OCc3ccccc3Br)cccc2o1)C(C)C | Broad substrate specificity ATP-binding cassette transporter ABCG2 (Homo sapiens) | 87 |
| COC(=O)[C@H](CC(C)C)NC(=O)c1cc(=O)c2c(OCc3ccccc3Br)cccc2o1 | Broad substrate specificity ATP-binding cassette transporter ABCG2 (Homo sapiens) | 115 |
| COC(=O)[C@@H](Cc1c[nH]c2ccccc12)NC(=O)c1cc(=O)c2c(OCc3ccc(Br)cc3)cccc2o1 | Broad substrate specificity ATP-binding cassette transporter ABCG2 (Homo sapiens) | 85 |
| CC[C@@H](C)[C@H](NC(=O)c1cc(=O)c2c(OCc3ccccc3Br)cccc2o1)C(=O)OC | Broad substrate specificity ATP-binding cassette transporter ABCG2 (Homo sapiens) | 78 |

----------
Measurement Description: Cytotoxicity against human HEK293 cells assessed as cell viability at 10 uM measured after 72 hrs by MTT assay
Type: cell-based
Details: read-out: Activity
Reported Endpoint: viability at 72 h, 10 µM (%)

| Structure String | Reported Endpoint | Result Number |
| --- | --- | --- |
| COC(=O)[C@H](CC(C)C)NC(=O)c1cc(=O)c2c(OCc3ccccc3Br)cccc2o1 | viability at 72 h, 10 µM | 87 |
| COC(=O)[C@H](Cc1c[nH]c2ccccc12)NC(=O)c1cc(=O)c2c(OCc3ccccc3Br)cccc2o1 | viability at 72 h, 10 µM | 88 |
| COC(=O)[C@@H](NC(=O)c1cc(=O)c2c(OCc3ccccc3Br)cccc2o1)C(C)C | viability at 72 h, 10 µM | 76 |
| COC(=O)[C@H](Cc1ccccc1)NC(=O)c1cc(=O)c2c(OCc3ccc(Br)cc3)cccc2o1 | viability at 72 h, 10 µM | 84 |
| COC(=O)[C@H](Cc1ccccc1)NC(=O)c1cc(=O)c2c(OCc3ccccc3Br)cccc2o1 | viability at 72 h, 10 µM | 82 |
| COC(=O)[C@H](Cc1c[nH]c2ccccc12)NC(=O)c1cc(=O)c2c(OCc3ccc(Br)cc3)cccc2o1 | viability at 72 h, 10 µM | 77 |
| COC(=O)[C@@H](Cc1c[nH]c2ccccc12)NC(=O)c1cc(=O)c2c(OCc3ccc(Br)cc3)cccc2o1 | viability at 72 h, 10 µM | 102 |
